# assay.system: PLP prior to Polymerization (Achromobacter lyticus, UniProt P15636)
# Sequence (P15636 206-473 limits assumed): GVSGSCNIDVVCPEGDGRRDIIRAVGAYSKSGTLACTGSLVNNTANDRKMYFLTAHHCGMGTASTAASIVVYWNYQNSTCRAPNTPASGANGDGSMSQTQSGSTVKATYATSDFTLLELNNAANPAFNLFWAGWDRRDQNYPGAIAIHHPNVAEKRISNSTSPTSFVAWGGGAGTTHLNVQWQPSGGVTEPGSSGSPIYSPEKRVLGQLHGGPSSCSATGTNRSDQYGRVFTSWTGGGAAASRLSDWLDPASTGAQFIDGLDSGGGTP
# test.details: Activity to substrates (substrate specificity), PLP prior to polymerization
# Format: biochemical
# condition.details: enzyme: PLP prior to Polymerization; pH 9.5, 30°C; Benzoyl lysine-p-nitroanilide = 100
# maps each entry to its Relative Activity
metric: Relative Activity (%)

1. NCCCC[C@H](NC(=O)c1ccccc1)C(=O)Nc1ccc([N+](=O)[O-])cc1 [Benzoyl lysine-p-nitroanilide]    100
2. O=C(N[C@@H](Cc1ccc(O)cc1)C(=O)Nc1ccc([N+](=O)[O-])cc1)c1ccccc1 [Benzoyl tyrosine-p-nitroanilide]    0.00
3. N=C(N)NCCC[C@H](NC(=O)c1ccccc1)C(=O)Nc1ccc([N+](=O)[O-])cc1 [Benzoyl arginine-p-nitroanilide]    0.01

* * *

# assay.system: water-soluble cross-linked polymer of PLP (Achromobacter lyticus, UniProt P15636)
# Sequence (P15636 206-473 limits assumed): as above
# test.details: Activity to substrates (substrate specificity), cross-linked polymer
# Assay type: biochemical
# condition.details: enzyme: Cross-Linked Polymer (0.144 u); pH 9.5, 30°C; Benzoyl lysine-p-nitroanilide = 100
metric: Relative Activity

1. C[C@H](N)C(=O)Nc1ccc([N+](=O)[O-])cc1 [Alanine-p-nitroanilide]    0.00%
2. O=C(N[C@@H](Cc1ccc(O)cc1)C(=O)Nc1ccc([N+](=O)[O-])cc1)c1ccccc1 [Benzoyl tyrosine-p-nitroanilide]    0.00%
3. N=C(N)NCCC[C@H](NC(=O)c1ccccc1)C(=O)Nc1ccc([N+](=O)[O-])cc1 [Benzoyl arginine-p-nitroanilide]    0.04%
4. CC(C)C[C@H](N)C(=O)Nc1ccc([N+](=O)[O-])cc1 [Leucine-p-nitroanilide]    0.00%

* * *

# Test system: PLP-Ia
# Type: biochemical, Achromobacter lyticus M 497-1
# condition.details: 1000 µM
# maps each entry to its Relative Activity
metric: Relative Activity (%)

1) Cc1ccc(S(=O)(=O)N[C@@H](Cc2ccccc2)C(=O)CCl)cc1    92.2
2) [Ca+2].[Cl-].[Cl-] [CaCℓ₂]    102.2
3) N[C@@H](CS)C(=O)O [L-cystein]    97.8
4) O[C@H](CS)[C@H](O)CS (racemic) [dithiothreitol]    103.9
5) O=C(O)CI [monoiodoacetate]    84.4
6) c1cnc2c(c1)ccc1cccnc12 [o-phenanthroline]    99.3
7) [Cl-].[Cl-].[Zn+2] [ZnCℓ₂]    44.1

* * *

# assay.system: water-soluble cross-linked polymer of PLP (Achromobacter lyticus, UniProt P15636)
# test.details: Activity to substrates (substrate specificity), cross-linked polymer
# Format: biochemical
# condition.details: enzyme: Cross-Linked Polymer (0.144 u); pH 9.5, 30°C; Benzoyl lysine-p-nitroanilide = 100
metric: Relative Activity

1. N[C@@H](CCC(=O)O)C(=O)Nc1ccc([N+](=O)[O-])cc1 [Glutamic acid-p-nitroanilide]    0.00%
2. CC(=O)N[C@@H](Cc1ccccc1)C(=O)Nc1ccc([N+](=O)[O-])cc1 [Acetylphenylalanine-p-nitroanilide]    0.00%
3. NCCCC[C@H](N)C(=O)Nc1ccc([N+](=O)[O-])cc1 [Lysine-p-nitroanilide]    5.6%
4. NCCCC[C@H](NC(=O)c1ccccc1)C(=O)Nc1ccc([N+](=O)[O-])cc1 [Benzoyl lysine-p-nitroanilide]    100%
